Target Or Test System: AAK1 (Homo sapiens)
Construct: HA; expressed in transfected cells; host or cells: HEK293F
Procedure Text: HEK281 cell-based assay (phospho-mu2 Western blot in transfected HEK293F cells)
Conditions Used: 3 hours incubation, read-out: CBA IC50
Observation Type: IC50

CN(CCCNc1ccc2ncc(-c3ccc(CN)s3)n2n1)c1ccccc1 ... ≤ 1000 nM
CCN(CC)CCNC(=O)c1ccc(-c2cnc3ccc(NCCOC(C)(C)C)nn23)cc1 ... ≤ 100 nM
CC(C)(C)CCNc1ccc2ncc(-c3ccc(CN)cc3)n2n1 ... ≤ 100 nM
CC(C)OC(=O)N(C)CCNc1ccc2ncc(-c3ccc([C@H]4CCCN4)cc3)n2n1 ... ≤ 100 nM

Continue with the compound presented below.
Exam item: Give me measured IC50, please, for this compound: N#Cc1ccc(-c2cnc3ccc(NCCOC4CCCC4)nn23)s1
Marked response: ≤ 100 nM

###

Target Or Test System: AAK1 (Homo sapiens, UniProt Q2M2I8)
Construct: HA; expressed in transfected cells; host or cells: HEK293F
Sequence (Q2M2I8 1-863 isoform Q2M2I8-2): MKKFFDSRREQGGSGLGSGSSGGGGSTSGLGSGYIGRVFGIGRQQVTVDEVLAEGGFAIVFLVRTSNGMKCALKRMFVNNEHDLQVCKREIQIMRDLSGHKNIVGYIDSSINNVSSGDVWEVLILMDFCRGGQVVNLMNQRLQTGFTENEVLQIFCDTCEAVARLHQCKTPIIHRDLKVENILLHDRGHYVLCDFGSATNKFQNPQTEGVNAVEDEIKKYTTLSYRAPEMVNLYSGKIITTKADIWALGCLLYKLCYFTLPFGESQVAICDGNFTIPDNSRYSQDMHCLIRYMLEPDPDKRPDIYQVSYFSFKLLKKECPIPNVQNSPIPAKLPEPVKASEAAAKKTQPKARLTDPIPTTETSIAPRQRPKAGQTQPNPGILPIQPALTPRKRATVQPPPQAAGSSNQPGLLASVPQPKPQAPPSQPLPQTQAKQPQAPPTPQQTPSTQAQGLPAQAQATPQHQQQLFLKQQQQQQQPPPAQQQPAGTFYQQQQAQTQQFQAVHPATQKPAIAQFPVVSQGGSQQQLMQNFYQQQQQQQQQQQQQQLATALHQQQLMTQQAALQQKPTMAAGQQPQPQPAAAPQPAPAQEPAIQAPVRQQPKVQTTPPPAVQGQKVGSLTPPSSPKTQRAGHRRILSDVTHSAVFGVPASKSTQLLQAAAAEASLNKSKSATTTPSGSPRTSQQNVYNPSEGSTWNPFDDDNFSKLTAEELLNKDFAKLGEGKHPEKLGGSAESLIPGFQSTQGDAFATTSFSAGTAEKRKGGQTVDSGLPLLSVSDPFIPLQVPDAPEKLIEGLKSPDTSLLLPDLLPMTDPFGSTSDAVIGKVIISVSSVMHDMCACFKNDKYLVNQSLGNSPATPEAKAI
Procedure Text: P81 filter plate assay
Format: biochemical
Conditions Used: full-length human AAK1, Mu2 substrate
Reported IC50 values are given for each entry in this list.

These recorded examples may help you get a feel for the data.
O=C(OC1CCC1)N1CCC[C@H]1CNc1ccc2ncc(Br)n2n1 ... ≤ 10 nM
CC(=O)c1cnc2ccc(N3CCN(C(=O)[C@@H](N)C(C)C)CC3)nn12 ... ≤ 10 nM

Exam item: Give me measured IC50, please, for this compound: CC(C)(C)CCN1C(=O)CC[C@H]1CNc1ccc2ncc(-c3ccc(CN)cc3)n2n1
Marked response: ≤ 10 nM

Exam item: Give me measured IC50, please, for this compound: COc1ccc(-c2cnc3ccc(N4CC[C@H](N(C)C(=O)OC(C)C)C4)nn23)c(OC)n1
Marked response: ≤ 10 nM

###

Target Or Test System: AAK1 (Homo sapiens, UniProt Q2M2I8)
Construct: HA; expressed in transfected cells; host or cells: HEK293F
Procedure Text: P81 filter plate assay
Assay type: biochemical
Conditions Used: full-length human AAK1, Mu2 substrate
Experimental: Compounds were serially diluted into a Labcyte LDV plate (Labcyte, cat#LP-0200) using a Mutiprobe (PerkinElmer) and Biomek FX (Beckman Coulter) so that the highest compound concentration was at 96 μM. […] The bottom of each filter plate was sealed followed by addition of 20 μl Microscint 40 to each well, sealing the top of the plates with Flashplate cover, and then waiting one hour until reading on the TopCount (PerkinElmer).
pIC50: −log10 of the molar value.
Observation Type: pIC50

COCCO[C@H]1CCN(c2ccc3ncc(-c4ccc(C)nc4OC)n3n2)C1 ... ≥ 7.00
CC(C)CCN1C(=O)CC[C@H]1CNc1ccc2ncc(-c3ccc(CN)cc3)n2n1 ... ≥ 8.00
CC(C)(C)NC(=O)N1CCC[C@H]1CNc1ccc2ncc(-c3ccccc3)n2n1 ... ≥ 8.00
[2H]C([2H])([2H])Oc1ncccc1-c1cnc2ccc(N3CC[C@H](N(C)C(=O)OC(C)C)C3)nn12 ... ≥ 8.00

Exam item: Give me measured pIC50, please, for this compound: COc1ccc(F)cc1-c1cnc2ccc(N3CCN(C(=O)OC(C)C)CC3)nn12
Marked response: ≥ 8.00

Exam item: Give me measured pIC50, please, for this compound: c1cc2c(cc1-c1cnc3ccc(NCCOC4CCCC4)nn13)OCO2
Marked response: ≥ 7.00

Exam item: Give me measured pIC50, please, for this compound: COc1cc(C)c(F)cc1-c1cnc2ccc(N3CCN(C(=O)OC(C)C)CC3)nn12
Marked response: ≥ 8.00

###

Where a name gives a salt, the structure may show the parent alone.
Reported melting point values are given for each entry in this list.

CCCCNc1ccc2ncc(-c3ccc(-c4nnn[nH]4)cc3)n2n1 ... 270 to 271 °C
CC(C)N(CCNc1ccc2ncc(Br)n2n1)C(=O)OC(C)(C)C ... 154 to 155 °C
CC(C)OC(=O)N1CCN(c2ccc3ncc(-c4ccccc4OC(C)C)n3n2)CC1 (as salt: hydrochloride) ... 216 to 217 °C (dec.)

Exam item: Give me measured melting point, please, for this compound: CN(CCNc1ccc2ncc(Br)n2n1)C(=O)OC(C)(C)C
Marked response: 128 to 129 °C

###

Reported pIC50 values are given for each entry in this list.
Target Or Test System: AAK1 (Homo sapiens, UniProt Q2M2I8)
Construct: HA; expressed in transfected cells; host or cells: HEK293F
Procedure Text: HEK281 cell-based assay (phospho-mu2 Western blot in transfected HEK293F cells)
Conditions Used: 3 hours incubation, read-out: CBA IC50
pIC50: −log10 of the molar value.

NCc1ccc(-c2cnc3ccc(NCC4CCCC4)nn23)cc1 ... ≥ 6.00

Exam item: Give me measured pIC50, please, for this compound: COc1cnccc1-c1cnc2ccc(NCCN(C(=O)OCCF)C(C)C)nn12
Marked response: ≥ 6.00

###

Target Or Test System: AAK1 (Homo sapiens)
Construct: HA; expressed in transfected cells; host or cells: HEK293F
Procedure Text: P81 filter plate assay
Assay type: biochemical
Conditions Used: full-length human AAK1, Mu2 substrate
Description: Compounds were serially diluted into a Labcyte LDV plate (Labcyte, cat#LP-0200) using a Mutiprobe (PerkinElmer) and Biomek FX (Beckman Coulter) so that the highest compound concentration was at 96 μM. […] The bottom of each filter plate was sealed followed by addition of 20 μl Microscint 40 to each well, sealing the top of the plates with Flashplate cover, and then waiting one hour until reading on the TopCount (PerkinElmer).
pIC50: −log10 of the molar value.
Reported pIC50 values are given for each entry in this list.

c1ccc(-c2cnc3ccc(NCCOC4CCCC4)nn23)nc1 ... ≥ 8.00
CN(C(=O)OC(C)(C)C)C1CCN(c2ccc3ncc(-c4ccccc4)n3n2)C1 (stereo not shown) ... ≥ 7.00
CC(C)(C)NC(=O)N1CCN(c2ccc3ncc(Br)n3n2)CC1 ... ≥ 8.00
COc1ccccc1-c1cnc2ccc(N3CCN(C(=O)N4CCCC4)CC3)nn12 ... ≥ 8.00
CC(C)(C)C(=O)N1CCN(c2ccc3ncc(-c4ccccc4)n3n2)CC1 ... ≥ 7.00
COc1ccccc1-c1cnc2ccc(N3CCN(C(=O)OC(C)C)CC3)nn12 ... ≥ 8.00
CCOc1ncccc1-c1cnc2ccc(N3CCN(C(=O)OC(C)C)CC3)nn12 ... ≥ 8.00
COc1ncccc1-c1cnc2ccc(N(C)C[C@@H]3CCCN3C(=O)OC(C)C)nn12 ... ≥ 8.00

Exam item: State, for AAK1 (Homo sapiens), measured pIC50 of the compound listed here: CC(C)(C)CNC(=O)N1CCC[C@H]1CNc1ccc2ncc(-c3ccccc3)n2n1
Marked response: ≥ 8.00

Exam item: State, for AAK1 (Homo sapiens), measured pIC50 of the compound listed here: CCOC(=O)N(C)[C@H]1CCN(c2ccc3ncc(-c4cc(C)cnc4OC)n3n2)C1
Marked response: ≥ 8.00

###

Target Or Test System: AAK1 (Homo sapiens)
Construct: HA; expressed in transfected cells; host or cells: HEK293F
Procedure Text: HEK281 cell-based assay (phospho-mu2 Western blot in transfected HEK293F cells)
Conditions Used: 3 hours incubation, read-out: CBA IC50
pIC50: −log10 of the molar value.
Reported pIC50 values are given for each entry in this list.

These recorded examples may help you get a feel for the data.
NCc1ccc(-c2cnc3ccc(NC[C@@H]4CCCN4C(=O)OC4CCCC4)nn23)cc1 ... ≥ 8.00
COc1ncccc1-c1cnc2ccc(N3CC[C@H](N(C)C(=O)OC(C)C)C3)nn12 ... ≥ 8.00
CCOC(=O)N1CCC[C@H]1CNc1ccc2ncc(-c3ccc(C4CCCN4)cc3)n2n1 (stereo partly drawn) ... ≥ 7.00
Cc1nc(C)c(-c2cnc3ccc(NCCN(C)C(=O)OC(C)C)nn23)s1 ... ≥ 7.00
Cc1nc(C)c(-c2cnc3ccc(NCCOCC(C)C)nn23)s1 ... ≥ 6.00

Exam item: Give me measured pIC50, please, for this compound: CCN(CCNc1ccc2ncc(-c3ccncc3OC)n2n1)C(=O)OC(C)C
Marked response: ≥ 7.00

Exam item: Give me measured pIC50, please, for this compound: CC(C)COCCNc1ccc2ncc(-c3ccncc3)n2n1
Marked response: ≥ 6.00

Exam item: Give me measured pIC50, please, for this compound: CC(C)(C)CC(=O)N1CCC[C@H]1CNc1ccc2ncc(-c3ccncc3)n2n1
Marked response: ≥ 7.00

Exam item: Give me measured pIC50, please, for this compound: CC(C)N(CCNc1ccc2ncc(-c3ccc(C(N)=O)cc3)n2n1)C(=O)OC1CCCC1
Marked response: ≥ 7.00

Exam item: Give me measured pIC50, please, for this compound: NCc1ccc(-c2cnc3ccc(NCCCc4cccc(F)c4)nn23)cc1
Marked response: ≥ 7.00

Exam item: Give me measured pIC50, please, for this compound: CC(C)(C)OC(=O)N1CCC[C@H]1CNc1ccc2ncc(-c3ccc(C(N)=O)cc3)n2n1
Marked response: ≥ 8.00

Exam item: Give me measured pIC50, please, for this compound: CN(C)C(=O)c1cccc(-c2cnc3ccc(N4CCN(C(=O)N5CCCC5)CC4)nn23)c1
Marked response: ≥ 7.00

Reference source: patent US8969565B2
